Tested on: cGMP-related PDEs
Test: GloSensor live-cell screening model targeting cGMP (pGloSensor-42F cGMP plasmid in HEK293T cells, SNAP-stimulated)
Format: cell-based
Details: Homo sapiens, HEK-293T, read-out: IC50 detected using the cell screening model targeting cGMP
Measured metric: pIC50
Numbers only, as −log10 of the molar value.

Fetch value of pIC50 on cGMP-related PDEs for COc1ccc(-c2oc3c(CC=C(C)C)c(O[C@@H]4O[C@H](CO)[C@@H](O)[C@H](O)[C@H]4O)cc(O)c3c(=O)c2O[C@@H]2O[C@@H](C)[C@H](O)[C@@H](O)[C@H]2O)cc1 .
3.19

====

For each of the compounds below, state its log10(IC50).
Biological target: Recombinant human PDE4B protein (Homo sapiens)
Sequence (Q07343 whole entry): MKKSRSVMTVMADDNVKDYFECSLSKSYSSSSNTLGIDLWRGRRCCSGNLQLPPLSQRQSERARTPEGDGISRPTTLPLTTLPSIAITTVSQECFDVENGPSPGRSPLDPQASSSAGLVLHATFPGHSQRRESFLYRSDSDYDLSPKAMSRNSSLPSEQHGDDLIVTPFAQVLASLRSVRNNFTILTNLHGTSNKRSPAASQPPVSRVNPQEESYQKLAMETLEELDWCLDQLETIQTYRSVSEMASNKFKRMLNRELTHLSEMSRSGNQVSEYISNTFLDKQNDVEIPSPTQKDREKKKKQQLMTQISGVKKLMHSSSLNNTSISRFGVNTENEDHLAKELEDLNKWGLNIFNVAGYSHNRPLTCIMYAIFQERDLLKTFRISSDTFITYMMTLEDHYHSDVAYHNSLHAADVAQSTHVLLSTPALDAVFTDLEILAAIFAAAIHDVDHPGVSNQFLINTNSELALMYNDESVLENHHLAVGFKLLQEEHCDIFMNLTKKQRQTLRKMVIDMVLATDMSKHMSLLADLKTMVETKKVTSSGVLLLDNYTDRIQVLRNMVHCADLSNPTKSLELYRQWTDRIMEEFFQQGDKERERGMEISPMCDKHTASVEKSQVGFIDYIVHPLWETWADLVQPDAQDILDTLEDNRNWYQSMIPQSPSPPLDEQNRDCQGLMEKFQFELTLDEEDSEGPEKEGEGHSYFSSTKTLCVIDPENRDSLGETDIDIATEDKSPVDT
Assay: In vitro enzymatic activity assay (PDE-Glo Phosphodiesterase Assay), PDE4B
Values below are the log10 of the recorded IC50, with µM as the unit.

{"Compound": "Clc1cccc(Cl)c1C=Cc1ccccn1 [Compound 1]", "Measurement target": "Recombinant human PDE4B protein (Homo sapiens)", "log10(IC50)": 1.80}
{"Compound": "COc1cc(C=Cc2ccccn2)cc(OC)c1OC [Compound 2]", "Measurement target": "Recombinant human PDE4B protein (Homo sapiens)", "log10(IC50)": 1.41}
{"Compound": "COc1ccccc1C=Cc1ccc(N(C)C)cc1 [Compound 5]", "Measurement target": "Recombinant human PDE4B protein (Homo sapiens)", "log10(IC50)": 1.15}
{"Compound": "COc1cc(C=Cc2cccnc2)cc(OC)c1OC [Compound 3]", "Measurement target": "Recombinant human PDE4B protein (Homo sapiens)", "log10(IC50)": 0.76}
{"Compound": "Cc1c(O)c(C)c2c(c1O)C(=O)O[C@](C)(O)[C@H]2C [Compound 7, (3S,4S)-sclerotinin A]", "Measurement target": "Recombinant human PDE4B protein (Homo sapiens)", "log10(IC50)": 1.45}

// below: log10(IC50) requested for another compound
Return reported log10(IC50). Input compound: COc1cc(C=Cc2ccncc2)cc(OC)c1OC [Compound 4]
1.10

====

Biological target: Recombinant human PDE7A/HCP1 protein (Homo sapiens, UniProt Q13946)
Sequence (Q13946 whole entry): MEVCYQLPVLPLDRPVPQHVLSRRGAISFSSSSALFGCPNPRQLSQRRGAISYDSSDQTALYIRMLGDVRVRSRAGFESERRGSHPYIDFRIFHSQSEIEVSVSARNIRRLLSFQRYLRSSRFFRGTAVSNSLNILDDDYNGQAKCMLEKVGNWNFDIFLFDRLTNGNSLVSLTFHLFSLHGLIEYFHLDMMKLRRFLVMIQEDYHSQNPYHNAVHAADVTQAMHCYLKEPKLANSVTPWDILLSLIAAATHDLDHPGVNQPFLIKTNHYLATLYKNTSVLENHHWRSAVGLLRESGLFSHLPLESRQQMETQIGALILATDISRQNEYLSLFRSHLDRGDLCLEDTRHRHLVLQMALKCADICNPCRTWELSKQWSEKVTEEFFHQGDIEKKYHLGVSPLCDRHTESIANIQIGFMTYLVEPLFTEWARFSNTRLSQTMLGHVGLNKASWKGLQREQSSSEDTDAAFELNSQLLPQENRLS
Test: In vitro enzymatic activity assay (PDE-Glo Phosphodiesterase Assay), PDE7A
Flag rule - IC50 less than 4 µM flags True; the remaining entries get False.

Record excerpt, results attached:
{"Molecule": "CC(=O)O[C@@H]1C(=O)CCC2=CCC[C@H](C)[C@@]2(C)/C=C\\1C", "Measurement target": "Recombinant human PDE7A/HCP1 protein (Homo sapiens, UniProt Q13946)", "Class label": "False"}
{"Molecule": "Clc1cccc(Cl)c1C=Cc1ccccn1", "Measurement target": "Recombinant human PDE7A/HCP1 protein (Homo sapiens, UniProt Q13946)", "Class label": "False"}
{"Molecule": "COc1ccccc1C=Cc1ccc(N(C)C)cc1", "Measurement target": "Recombinant human PDE7A/HCP1 protein (Homo sapiens, UniProt Q13946)", "Class label": "True"}
{"Molecule": "Cc1ccc([N+](=O)[O-])cc1S(=O)(=O)N(C)C [BRL-50481, reference compound]", "Measurement target": "Recombinant human PDE7A/HCP1 protein (Homo sapiens, UniProt Q13946)", "Class label": "True"}
{"Molecule": "COc1cc(C=Cc2cccnc2)cc(OC)c1OC", "Measurement target": "Recombinant human PDE7A/HCP1 protein (Homo sapiens, UniProt Q13946)", "Class label": "False"}

Identify whether the molecule COc1cc(C=Cc2ccncc2)cc(OC)c1OC records IC50 below 4 µM.
False

Answer whether the molecule COc1cc(C=Cc2ccccn2)cc(OC)c1OC has IC50 strictly less than 4 µM
False
